Tested on: Entercoccus faecalis
test name: antibiogram by diffusion on Mueller-Hinton agar with antibiotic wafers
Format: cell-based
condition context: Table C1; E. faecalis phenotype Atypical; six wafers, disk loads of Table B

>  <smiles data>
CCC[C@@H]1C[C@@H](C(=O)N[C@@H]([C@H]2O[C@H](SC)[C@H](O)[C@@H](O)[C@H]2O)[C@@H](C)O)N(C)C1

>  <measurement target>
Entercoccus faecalis

>  <resistance (I, R) or sensitivity (S)>
S

$$$$
>  <smiles data>
CC1(C)S[C@@H]2[C@H](NC(=O)[C@H](N)c3ccc(O)cc3)C(=O)N2[C@H]1C(=O)O

>  <measurement target>
Entercoccus faecalis

>  <resistance (I, R) or sensitivity (S)>
R

$$$$
>  <smiles data>
O=C1CN(/N=C/c2ccc([N+](=O)[O-])o2)C(=O)N1

>  <measurement target>
Entercoccus faecalis

>  <resistance (I, R) or sensitivity (S)>
S

$$$$
>  <smiles data>
CN[C@H](CC(C)C)C(=O)N[C@H]1C(=O)N[C@@H](CC(N)=O)C(=O)N[C@H]2C(=O)N[C@H]3C(=O)N[C@H](C(=O)N[C@H](C(=O)O)c4cc(O)cc(O)c4-c4cc3ccc4O)[C@H](O)c3ccc(c(Cl)c3)Oc3cc2cc(c3O[C@@H]2O[C@H](CO)[C@@H](O)[C@H](O)[C@H]2O[C@H]2C[C@](C)(N)[C@H](O)[C@H](C)O2)Oc2ccc(cc2Cl)[C@H]1O

>  <measurement target>
Entercoccus faecalis

>  <resistance (I, R) or sensitivity (S)>
S

$$$$

====

System: Escherichia coli
test name: antibiogram by diffusion on Mueller-Hinton agar with antibiotic wafers
Format: cell-based
condition context: Table C1; E. coli phenotype Ll penicillinase; six wafers, disk loads of Table B
outcome measure: resistance (I, R) or sensitivity (S)

>  <compound>
CC1(C)S[C@@H]2[C@H](NC(=O)[C@H](N)c3ccc(O)cc3)C(=O)N2[C@H]1C(=O)O [AMX, amoxicillin]

>  <outcome measure>
resistance (I, R) or sensitivity (S)

>  <result>
R

$$$$
>  <compound>
CO/N=C(\C(=O)N[C@@H]1C(=O)N2C(C(=O)O)=C(CSc3nc(=O)c(=O)[nH]n3C)CS[C@H]12)c1csc(N)n1 [CRO, ceftriaxone]

>  <outcome measure>
resistance (I, R) or sensitivity (S)

>  <result>
S

$$$$
>  <compound>
C[C@@H](O)[C@H]1C(=O)N2C(C(=O)O)=C(SCCN=CN)C[C@H]12 [IMP, imipenem]

>  <outcome measure>
resistance (I, R) or sensitivity (S)

>  <result>
S

$$$$
>  <compound>
CO/N=C(\C(=O)N[C@@H]1C(=O)N2C(C(=O)[O-])=C(C[N+]3(C)CCCC3)CS[C@H]12)c1csc(N)n1 [FEP, cefepime]

>  <outcome measure>
resistance (I, R) or sensitivity (S)

>  <result>
S

$$$$

====

Tested on: Pseudomonas aeruginosa
test name: antibiogram by diffusion on Mueller-Hinton agar with antibiotic wafers
Type: cell-based
condition context: Table C1; P. aeruginosa phenotype Selective imipenem permeability; six wafers, disk loads of Table B

>  <compound>
CO/N=C(\C(=O)N[C@@H]1C(=O)N2C(C(=O)[O-])=C(C[N+]3(C)CCCC3)CS[C@H]12)c1csc(N)n1 [FEP, cefepime]

>  <measurement target>
Pseudomonas aeruginosa

>  <resistance (I, R) or sensitivity (S)>
S

$$$$
>  <compound>
C[C@@H](O)[C@H]1C(=O)N2C(C(=O)O)=C(SCCN=CN)C[C@H]12

>  <measurement target>
Pseudomonas aeruginosa

>  <resistance (I, R) or sensitivity (S)>
I

$$$$
>  <compound>
CC1(C)S[C@@H]2[C@H](NC(=O)[C@H](C(=O)O)c3ccsc3)C(=O)N2[C@H]1C(=O)O

>  <measurement target>
Pseudomonas aeruginosa

>  <resistance (I, R) or sensitivity (S)>
S

$$$$
>  <compound>
CC(C)(O/N=C(\C(=O)N[C@@H]1C(=O)N2C(C(=O)[O-])=C(C[n+]3ccccc3)CS[C@H]12)c1csc(N)n1)C(=O)O

>  <measurement target>
Pseudomonas aeruginosa

>  <resistance (I, R) or sensitivity (S)>
S

$$$$
